- Experimental Protocol: PK profile of HBI-2375 in plasma and brain in C57BL/6J mice
- Assay type: in vivo
- Run Conditions: mouse; C57BL/6J mice, single PO 40 mg/kg, plasma, female
Measure Name: MRT last (h)
Field: numeric (h). Do not append units.

# input Note down MRT last recorded for "Cc1c(F)c(N)cc(C(=O)Nc2cc(-n3cc(C(=O)N4CCN(C)CC4)nn3)c(F)cc2N2C[C@@H](C)N(C)[C@@H](C)C2)c1Cl"
# output 5.3

###

- Experimental Protocol: PK profile of HBI-2375 in plasma and brain in C57BL/6J mice
- Assay type: in vivo
- Run Conditions: both sexes, mouse; C57BL/6J mice, single PO 40 mg/kg, brain, mean
Measure Name: MRT last
Quick note: number first, unit second.

# input Note down MRT last recorded for "Cc1c(F)c(N)cc(C(=O)Nc2cc(-n3cc(C(=O)N4CCN(C)CC4)nn3)c(F)cc2N2C[C@@H](C)N(C)[C@@H](C)C2)c1Cl"
# output 8.15 h

###

- Experimental Protocol: Compound formulation stability assay
- Assay type: physicochemical
- Run Conditions: 10 mg/mL in 10% DMSO/10% solutol HS 15/80% water, 2-8° C., Day 7

{"Compound": "C[C@H]1CN(c2cc(F)c(-c3cnc(N4CCOCC4)nc3)cc2Nc2ncnc(Cl)c2N)CCN1C [DDO-2213_020]", "Formulation Appearance (Day 7)": "clear solution"}
{"Compound": "C[C@@H]1CN(c2ncc(-c3cc(Nc4ncnc(Cl)c4N)c(N4CCN(C)[C@@H](C)C4)cc3F)cn2)C[C@H](C)O1 [DDO-2213_023]", "Formulation Appearance (Day 7)": "clear solution"}
{"Compound": "Cc1c(F)c(N)cc(C(=O)Nc2cc(-n3cc(C(=O)N4CCN(C)CC4)nn3)c(F)cc2N2C[C@@H](C)N(C)[C@@H](C)C2)c1Cl [HYBI-084]", "Formulation Appearance (Day 7)": "clear solution"}
{"Compound": "CCN(CC)C(=O)c1cn(-c2cc(NC(=O)c3cc(N)c(F)c(C)c3Cl)c(N3C[C@@H](C)N(C)[C@@H](C)C3)cc2F)nn1 [HYBI-082]", "Formulation Appearance (Day 7)": "clear"}

###

- Assayed Target: UniProt:P01116
- Sequence (P01116 1-188 isoform P01116-2): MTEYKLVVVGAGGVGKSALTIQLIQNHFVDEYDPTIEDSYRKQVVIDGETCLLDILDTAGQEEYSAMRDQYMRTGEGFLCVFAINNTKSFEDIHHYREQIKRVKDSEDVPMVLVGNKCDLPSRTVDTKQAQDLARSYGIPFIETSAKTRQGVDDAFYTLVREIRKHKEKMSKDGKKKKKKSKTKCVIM
pIC50: −log10 of the molar value.
Measure Name: pIC50

# input Note down pIC50 recorded for "Cc1c(F)c(N)cc(C(=O)Nc2cc(-n3cc(C(=O)N4CCN(C)CC4)nn3)c(F)cc2N2C[C@@H](C)N(C)[C@@H](C)C2)c1Cl"
# output < 6.00

###

- Experimental Protocol: Mouse PK (oral)
- Type: in vivo, C57/B16 mice
- Run Conditions: 30 mpk
molecules and their reported F
Field: numeric (%). Do not append units.

Please review the entries below; each comes with its answer.
{"Molecule": "C[C@@H]1CN(c2ncc(-c3cc(Nc4ncnc(Cl)c4N)c(N4CCN(C)[C@@H](C)C4)cc3F)cn2)C[C@H](C)O1 [DDO-2213_023]", "Measure Name": "F", "Result Units": "%", "Observed Value": 93.8}
{"Molecule": "Cc1c(F)c(N)cc(C(=O)Nc2cc(-n3cc(C(=O)N4CCN(C)CC4)nn3)c(F)cc2N2C[C@@H](C)N(C)[C@@H](C)C2)c1Cl [HYBI-084]", "Measure Name": "F", "Result Units": "%", "Observed Value": 37.7}
{"Molecule": "C[C@H]1CN(c2cc(F)c(-c3cnc(N4CCOCC4)nc3)cc2Nc2ncnc(Cl)c2N)CCN1C [DDO-2213_020]", "Measure Name": "F", "Result Units": "%", "Observed Value": 107.0}

Let's switch to this molecule now.
# input Note down F recorded for CCN(CC)C(=O)c1cn(-c2cc(NC(=O)c3cc(N)c(F)c(C)c3Cl)c(N3C[C@@H](C)N(C)[C@@H](C)C3)cc2F)nn1 [HYBI-082]
# output 27.5

FYI, the data here is from patent US20230293539A1.
